- Assay system: factor B (Homo sapiens, UniProt P00751)
- Sequence (P00751 26-764): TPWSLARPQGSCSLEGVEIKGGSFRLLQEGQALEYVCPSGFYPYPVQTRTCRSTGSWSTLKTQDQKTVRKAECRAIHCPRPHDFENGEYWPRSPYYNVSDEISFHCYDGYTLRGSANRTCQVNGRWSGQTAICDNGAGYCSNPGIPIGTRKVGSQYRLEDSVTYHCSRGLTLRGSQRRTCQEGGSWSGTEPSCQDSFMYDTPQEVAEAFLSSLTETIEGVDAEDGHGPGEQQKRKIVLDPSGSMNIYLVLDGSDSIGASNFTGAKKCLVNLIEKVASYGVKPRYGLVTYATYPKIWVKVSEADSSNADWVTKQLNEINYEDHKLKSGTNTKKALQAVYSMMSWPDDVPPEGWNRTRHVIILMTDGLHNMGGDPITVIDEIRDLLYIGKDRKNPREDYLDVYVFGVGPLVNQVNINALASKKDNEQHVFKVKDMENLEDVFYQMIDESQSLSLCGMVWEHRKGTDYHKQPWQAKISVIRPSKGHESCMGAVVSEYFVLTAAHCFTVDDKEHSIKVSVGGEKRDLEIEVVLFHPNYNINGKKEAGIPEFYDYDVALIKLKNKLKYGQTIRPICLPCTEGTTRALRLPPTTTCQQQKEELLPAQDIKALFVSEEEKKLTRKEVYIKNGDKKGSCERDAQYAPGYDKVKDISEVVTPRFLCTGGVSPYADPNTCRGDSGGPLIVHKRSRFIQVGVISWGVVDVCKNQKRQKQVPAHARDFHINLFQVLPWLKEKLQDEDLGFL
- Assay text: assay of Biological Example 2.7
- Assay type: binding
- Set-up: made in house; host or cells: drosophila cells
- Measurement setup: assay of Biological Example 2.7 (Table 2)
pIC50: −log10 of the molar value.
pIC50 for assorted compounds
Measurement label: pIC50

>>> df
                                   compound                             assay_system  measurement_label  test_value
0  COc1c(F)c(C)c2[nH]ccc2c1C(C)(N)c1nc2cc(C#N)ccc2[nH]1 (stereo not shown)  factor B (Homo sapiens, UniProt P00751)              pIC50        7.54
1  COc1cc(C)c2[nH]ccc2c1C(C)(O)c1cc2ccc(C#N)cc2o1 (stereo not shown)  factor B (Homo sapiens, UniProt P00751)              pIC50        6.72
2  COC(C)(c1nc2cc(C#N)ccc2o1)c1c(C2CC2)cc(C)c2[nH]ccc12 (single isomer, unassigned; (-)) [137-L b) (−)]  factor B (Homo sapiens, UniProt P00751)              pIC50        6.57
3  Cc1cc(C)c2[nH]ccc2c1C(O)c1cc2cc(C#N)ccc2o1 (stereo not shown)  factor B (Homo sapiens, UniProt P00751)              pIC50        5.87

====

- Assay system: factor B (Homo sapiens, UniProt P00751)
- Assay text: assay of Biological Example 2.7
- Type: binding
- Set-up: made in house; host or cells: drosophila cells
- Measurement setup: assay of Biological Example 2.7 (Table 2)
pIC50: −log10 of the molar value.
Everything with pIC50 lower than 7 is not fulfilled; everything else, including exactly 7, is fulfilled.

In [3]: df
Out[3]:
                                    compound          class
 0  COc1cc(C)c2[nH]ccc2c1C(N)(c1nc2cc(C#N)ccc2[nH]1)C(F)(F)F (racemic) [36-E b) (−)]      fulfilled
 1  COc1cc(C)c2[nH]ccc2c1C(C)(O)c1nc2cc(C#N)ccc2o1 (single isomer, unassigned; (+)) [137-N b) (+)]      fulfilled
 2  COc1cc(C)c2[nH]ccc2c1C(CCO)c1nc2cc(C#N)ccc2[nH]1 (racemic) [Example 145-E]  not fulfilled
 3  COc1cc(C)c2[nH]ccc2c1C(OCC(C)(C)C(=O)O)(c1nc2cc(C#N)ccc2o1)C(F)(F)F (racemic) [Example 138]  not fulfilled
 4  COc1cc(C)c2[nH]ccc2c1C(C)(O)c1cc2cc(C#N)ccc2o1 (centres unmarked) [Example 137-V]      fulfilled
 5  COc1cc(C)c2[nH]ccc2c1C(OCc1nnc(C)o1)(c1nc2cc(C#N)ccc2[nH]1)C(F)(F)F (racemic) [Example 35-L]  not fulfilled
 6  CCOC(=O)COC(c1nc2cc(C#N)ccc2[nH]1)(c1c(OC)cc(C)c2[nH]ccc12)C(F)(F)F (single isomer, unassigned) [Example 35-D]      fulfilled
 7  COc1cc(C)c2[nH]ccc2c1C1(c2nc3cc(C#N)ccc3o2)CC1C(=O)O (racemic) [Example 143]  not fulfilled
 8  COc1cc(C)c2[nH]ccc2c1C(C)(N)c1nc2cc(C#N)ccc2s1 (centres unmarked) [Example 137-D]  not fulfilled
 9  Cc1cc(Br)c(C(C)(N)c2nc3cc(C#N)ccc3[nH]2)c2cc[nH]c12 (single isomer, unassigned; (-)) [137-A b) (−)]      fulfilled
10  Cc1cc(C)c2[nH]ccc2c1C(O)c1nc2cc(C#N)ccc2s1 (centres unmarked) [Example 137-R]  not fulfilled
11  COc1cc(C)c2[nH]ccc2c1C(C)(OC)c1nc2ccc(C#N)cc2s1 (centres unmarked) [Example 137-W]  not fulfilled
